Overview of recorded TGI for various molecules
system: CCRF-CEM leukemia; assay: NCI tumour cell line growth inhibition, 48 h

Here are 4 molecules together with their reported answers.
> print(dat)
                                   molecule   reported
1  O=P1(c2ccccc2)C(c2ccccc2)CCC1c1ccccc1 (configuration not stated)   > 100 µM
2  Cc1ccc2c(C(C[N+](=O)[O-])c3ccccc3)c(-c3ccccc3)[nH]c2c1 (configuration not stated)    > 95 µM
3             CN(C)Cc1cc(Cl)c(O)c(CN(C)C)c1   > 100 µM
4  Fc1cccc(COc2ccc(Nc3ncnc4onc(-c5ccccc5)c34)cc2)c1  > 50.4 µM

Here's the next entry for you.
INPUT: Lab note: need TGI with CCRF-CEM leukemia for entry COC[C@H](NC(=O)c1cnc(C)s1)C(=O)N[C@@H](COC)C(=O)N[C@@H](Cc1ccccc1)C(=O)[C@@]1(C)CO1 , please look it up.
OUTPUT: > 100 µM
